molecules and their reported MIC
# Tested on: Escherichia coli
# assayComment: Antimicrobial activity against Escherichia coli TOP10(pNOR-1) expressing CSP-1 gene after 2 days by agar dilution method
# Format: functional
# experimentalContext: 48 h

Readout MIC for CC1(C)S[C@@H]2[C@H](NC(=O)[C@H](N)c3ccc(O)cc3)C(=O)N2[C@H]1C(=O)O [AMOXICILLIN] , test system Escherichia coli, was > 512 µg/mL

Readout MIC for CC1(C)S[C@@H]2[C@H](NC(=O)[C@H](C(=O)O)c3ccsc3)C(=O)N2[C@H]1C(=O)O [TICARCILLIN] , test system Escherichia coli, was > 512 µg/mL

Readout MIC for CC(=O)OCC1=C(C(=O)O)N2C(=O)[C@@H](NC(=O)Cc3cccs3)[C@H]2SC1 [CEPHALOTHIN] , test system Escherichia coli, was > 512 µg/mL
